System: HeLa
Protocol: Toxicity, dye based cell growth assay, HeLa
Condition context: read-out: IC50 (inhibited 50% of the cell growth), cervical cancer cell line, 5 days
Attribute measured: pIC50
Please express pIC50 as -log10 of the molar concentration.

Consider the compound shown here: Nc1nc(N)c2ncn([C@H]3CO[C@@H](CO)O3)c2n1 What is its recorded pIC50?
3.30

###

Test system: CEM
Protocol: Toxicity, dye based cell growth assay, CEM
Condition context: Homo sapiens, CCRF-CEM, 120 h, read-out: IC50 (inhibited 50% of the cell growth); CEM, T cell line, 5 days
Attribute measured: IC50 (µM)
Numeric only. Scale: µM

>>> result_number("Nc1nc2c(ncn2[C@H]2C=C[C@@H](CO)O2)c(=O)[nH]1")
70
>>> result_number("Nc1nc(NC2CC2)c2ncn([C@H]3C=C[C@@H](CO)C3)c2n1")
200
>>> result_number("Nc1ccn([C@H]2CC[C@@H](CO)O2)c(=O)n1")
3

Turning to the following compound.
Reported IC50 for Nc1nc(NC2CC2)c2ncn([C@H]3C=C[C@@H](CO)O3)c2n1 : what is it?
200

###

Tested on: HeLa
Protocol: Toxicity, dye based cell growth assay, HeLa
Condition context: Homo sapiens, 120 h, read-out: IC50 (inhibited 50% of the cell growth)
Attribute measured: pIC50
pIC50 is defined as minus the log10 of a concentration measured in mol/L.

I am curious: what pIC50 value has been reported for Cc1cn([C@H]2C=C[C@@H](CO)O2)c(=O)[nH]c1=O [d4T, 2′,3′-didehydro-2′,3′-dideoxythymidine] ?
3.32

###

Study target: wild type HIV-1 reverse transcriptase (Human immunodeficiency virus type 1 group M subtype B, UniProt P04585)
Construct: a mixture of 100 nM HIV-1 reverse transcriptase and 300 nM primer/template
Protocol: Kinetics of nucleotide incorporation by wild type HIV-1 reverse transcriptase
Format: biochemical
Condition context: Table 4, primer/template DNA/RNA, RT WT
Reported Kd values follow for various molecules

>>> result("Nc1nc2c(ncn2[C@H]2C=C[C@@H](COP(=O)(O)OP(=O)(O)OP(=O)(O)O)O2)c(=O)[nH]1 [D4GTP]")
"9.5 µM"
>>> result("Nc1nc2c(ncn2C2C=CC(COP(=O)(O)OP(=O)(O)OP(=O)(O)O)C2)c(=O)[nH]1 (single isomer, unassigned; (-)) [CBVTP, (−) carbovir-TP]")
"3.7 µM"

Look up Kd for this molecule: Nc1nc2c(ncn2[C@H]2C[C@H](O)[C@@H](COP(=O)(O)OP(=O)(O)OP(=O)(O)O)O2)c(=O)[nH]1 [DGTP]
11 µM

###

System: mitochondrial DNA in CEM cells
Protocol: Mitochondrial toxicity: ratio of mitochondrial DNA to Alu repeat in CEM cells
Type: cell-based
Condition context: human, 8 days, 1 μM
Item-by-item account of Ration of mtDNA/Alu
Output: the number by itself.

>>> result_number("Nc1nc(NC2CC2)c2ncn([C@H]3C=C[C@@H](CO)O3)c2n1")
1.06
>>> result_number("Nc1nc(NC2CC2)c2ncn([C@H]3C=C[C@@H](CO)C3)c2n1")
1.18

For the compound shown here, Nc1nc2c(ncn2[C@H]2C=C[C@@H](CO)O2)c(=O)[nH]1 , give the reported Ration of mtDNA/Alu.
1.12

Recorded Ration of mtDNA/Alu for Nc1ccn([C@H]2CC[C@@H](CO)O2)c(=O)n1 , please?
0.03
